Numbers sourced from paper PMC9841405.

Molecular target: AtTCP15-DBD (UniProt Q9C9L2 51-113)
Experiment: ITC
measurementLabel: Kd (nM)
Numbers only, in nM.

binder: two-site class I DNA (dsDNA) DNA 1: ATGTGGGTCCGTGT DNA 2: TACACGGACCCACA
measurementLabel: Kd
result: 109

Moving on to the next binder.
**Query** Specify Kd for three-site class I DNA (dsDNA) DNA 1: ATGTGGGTCCCACT DNA 2: TAGTGGGACCCACA and stop.
**Result** 38.3
